target: truncated form of PTP1 B (corresponding to the first 321 amino acids) (Homo sapiens, UniProt P18031); construct: truncated form of PTP1 B (corresponding to the first 321 amino acids); assay: Inhibition of PTP1B (p-nitrophenyl phosphate substrate, enzyme kinetic analysis); settings: truncated PTP1B expressed in E. coli; substrate p-nitrophenyl phosphate 0.16 to 10 mM; 50 mM HEPES pH 7.0; 60 minutes; read-out: PTP1B K1 values
Sequence (P18031 1-321): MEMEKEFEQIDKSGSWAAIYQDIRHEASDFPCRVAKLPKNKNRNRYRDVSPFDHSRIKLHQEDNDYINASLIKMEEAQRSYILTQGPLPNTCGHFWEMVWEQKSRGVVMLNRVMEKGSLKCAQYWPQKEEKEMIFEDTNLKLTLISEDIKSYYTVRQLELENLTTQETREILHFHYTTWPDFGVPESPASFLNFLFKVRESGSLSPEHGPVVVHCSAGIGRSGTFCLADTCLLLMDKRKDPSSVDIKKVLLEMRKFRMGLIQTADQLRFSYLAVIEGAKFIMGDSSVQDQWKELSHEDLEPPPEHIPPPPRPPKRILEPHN
We begin with a simple list: items and their reported Ki.
Quantity: Ki (µM)

> print(dat)
                                   compound  quantity  meas.value
1  O=C(O)C(=O)Nc1sc2c(c1C(=O)O)CCOC2CNC(=O)c1ccc2c(c1)OCO2 (stereo not drawn)        Ki         8.2
2  CC(=O)Nc1ccc(/C=C2\SC(=O)N(CC3OCCc4c3sc(NC(=O)C(=O)O)c4C(=O)O)C2=O)cc1 (stereo not drawn)        Ki         7.5
3  O=C(O)C(=O)Nc1sc2c(c1C(=O)O)CCOC2CN1C(=O)CSC1=O (stereo not drawn)        Ki         9.7
4  O=C(O)C(=O)Nc1sc2c(c1C(=O)O)CCOC2CN1C(=O)S/C(=C\c2c[nH]cn2)C1=O (stereo not drawn)        Ki         1.5
5  O=C(O)C(=O)Nc1sc2c(c1C(=O)O)CCOC2CN1C(=O)c2cccc(O)c2C1=O (stereo not drawn)        Ki           7
6  O=C(O)C(=O)Nc1sc2c(c1C(=O)O)CCOC2CN1C(=O)C=C(c2ccccc2)S1(=O)=O (stereo not drawn)        Ki         1.4
7  O=C(O)C(=O)Nc1sc2c(c1C(=O)O)CCOC2COC1=NS(=O)(=O)C(c2ccccc2)=C1 (stereo not drawn)        Ki           3
8  COc1ccc2c(c1)C(=O)N(CC1OCCc3c1sc(NC(=O)C(=O)O)c3C(=O)O)C2=O (stereo not drawn)        Ki         1.2
9  O=C(O)C(=O)Nc1sc2c(c1C(=O)O)CCOC2CN1C(=O)c2ccccc2S1(=O)=O (stereo not drawn)        Ki         2.3
